Hello, the source for this data is ChEMBL document CHEMBL6182910, in case you need it.

ASSAY_REMARKS: Ratio of AUC in brain to plasma of male Kunming mouse at 10 mg/kg, iv measured for 0.083 to 24 hrs by LC-MS/MS analysis
Format: ADME, organism-based
CONDITION_NOTES: brain and plasma, time 0.083-24 hrs, read-out: Ratio AUC
# Lookup of reported Kp keyed by entry
OBSERVATION_TYPE: Kp

[[record]]
sample_smiles = "N#Cc1cccc(Oc2nc(-c3cccc(C#N)c3)ncc2C(=O)O)c1"
observation_type = "Kp"
observed_measurement = 2.39

[[record]]
sample_smiles = "N#Cc1cccc(-c2nc(C(F)F)c(C(=O)O)n2OCc2csc(N)n2)c1"
observation_type = "Kp"
observed_measurement = 1.08


###

half-life values by entry
ASSAY_REMARKS: Half life male Sprague-Dawley rat at 10 mg/kg, iv measured up to 24 hrs by LC-MS/MS analysis
Assay type: ADME, organism-based
CONDITION_NOTES: in vivo
OBSERVATION_TYPE: half-life (min)

[[record]]
sample_smiles = "N#Cc1cccc(-c2nc(C(F)F)c(C(=O)O)n2OCc2csc(N)n2)c1"
observation_type = "half-life"
unit_abbrev = "min"
observed_measurement = 14.9

[[record]]
sample_smiles = "N#Cc1cccc(Oc2nc(-c3cccc(C#N)c3)ncc2C(=O)O)c1"
observation_type = "half-life"
unit_abbrev = "min"
observed_measurement = 38.5


###

ASSAY_REMARKS: Clearance male Sprague-Dawley rat at 10 mg/kg, iv measured up to 24 hrs by LC-MS/MS analysis
Assay type: ADME, organism-based
CONDITION_NOTES: in vivo
OBSERVATION_TYPE: clearance

[[record]]
sample_smiles = "N#Cc1cccc(Oc2nc(-c3cccc(C#N)c3)ncc2C(=O)O)c1"
observed_measurement = "7 mL/min/kg"

[[record]]
sample_smiles = "N#Cc1cccc(-c2nc(C(F)F)c(C(=O)O)n2OCc2csc(N)n2)c1"
observed_measurement = "14.6 mL/min/kg"


###

MEASURED_TARGET: P2Y purinoceptor 1 (Rattus norvegicus)
Sequence (P49651 whole entry): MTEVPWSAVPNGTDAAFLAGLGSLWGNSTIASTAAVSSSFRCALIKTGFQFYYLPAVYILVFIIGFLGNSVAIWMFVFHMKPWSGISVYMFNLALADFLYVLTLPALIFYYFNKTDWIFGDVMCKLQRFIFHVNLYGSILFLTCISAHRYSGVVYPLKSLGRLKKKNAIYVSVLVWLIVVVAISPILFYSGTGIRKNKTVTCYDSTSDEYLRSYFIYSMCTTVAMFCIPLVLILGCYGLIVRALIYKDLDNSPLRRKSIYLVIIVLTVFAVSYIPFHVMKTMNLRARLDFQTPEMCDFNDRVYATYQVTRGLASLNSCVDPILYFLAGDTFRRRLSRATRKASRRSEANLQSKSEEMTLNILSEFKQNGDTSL
ASSAY_REMARKS: Antagonist activity at P2Y1 receptor in platelet-rich plasma of rat assessed as inhibition of ADP-induced cytosolic Ca2+ level pretreated for 5 mins followed by ADP addition by FLUO-4 AM dye based analysis
Assay type: functional, cell-free
pIC50: −log10 of the molar value.
OBSERVATION_TYPE: pIC50

[[record]]
sample_smiles = "N#Cc1cccc(Oc2nc(-c3cccc(C#N)c3)ncc2C(=O)O)c1"
observed_measurement = 5.61

[[record]]
sample_smiles = "N#Cc1cccc(-c2nc(C(F)F)c(C(=O)O)n2OCc2csc(N)n2)c1"
observed_measurement = 5.66

[[record]]
sample_smiles = "CC(C)(C)c1ccccc1Oc1ncccc1NC(=O)Nc1ccc(OC(F)(F)F)cc1"
observed_measurement = 5.58

[[record]]
sample_smiles = "Cc1nc(-c2cccc(C#N)c2)n(OCc2ccc(C#N)cc2)c1C(=O)O"
observed_measurement = 5.53


###

Species: Oryctolagus cuniculus
ASSAY_REMARKS: Antagonist activity at P2Y12 receptor in platelet-rich plasma of male Japanese white rabbit assessed as inhibition of VASP phosphorylation at Ser239 at 30 uM pretreated for 10 mins followed by PGE1/ADP addition measured after 10 mins by ELISA relative to control
Format: cell-free
CONDITION_NOTES: time 20.0 min
inhibition overview
OBSERVATION_TYPE: inhibition (%)

[[record]]
sample_smiles = "N#Cc1cccc(-c2nc(C(F)F)c(C(=O)O)n2OCc2csc(N)n2)c1"
observation_type = "inhibition"
observed_measurement = 24.5

[[record]]
sample_smiles = "N#Cc1cccc(Oc2nc(-c3cccc(C#N)c3)ncc2C(=O)O)c1"
observation_type = "inhibition"
observed_measurement = 35.9

[[record]]
sample_smiles = "Cc1nc(-c2cccc(C#N)c2)n(OCc2ccc(C#N)cc2)c1C(=O)O"
observation_type = "inhibition"
observed_measurement = 27.9

[[record]]
sample_smiles = "CC(C)(C)c1ccccc1Oc1ncccc1NC(=O)Nc1ccc(OC(F)(F)F)cc1"
observation_type = "inhibition"
observed_measurement = 30.3

